# residual activity values compiled below
molecular target: Focal adhesion kinase 1 (Homo sapiens) (UniProt Q05397); settings: at 1 µM
Sequence (Q05397 2-1052 limits assumed): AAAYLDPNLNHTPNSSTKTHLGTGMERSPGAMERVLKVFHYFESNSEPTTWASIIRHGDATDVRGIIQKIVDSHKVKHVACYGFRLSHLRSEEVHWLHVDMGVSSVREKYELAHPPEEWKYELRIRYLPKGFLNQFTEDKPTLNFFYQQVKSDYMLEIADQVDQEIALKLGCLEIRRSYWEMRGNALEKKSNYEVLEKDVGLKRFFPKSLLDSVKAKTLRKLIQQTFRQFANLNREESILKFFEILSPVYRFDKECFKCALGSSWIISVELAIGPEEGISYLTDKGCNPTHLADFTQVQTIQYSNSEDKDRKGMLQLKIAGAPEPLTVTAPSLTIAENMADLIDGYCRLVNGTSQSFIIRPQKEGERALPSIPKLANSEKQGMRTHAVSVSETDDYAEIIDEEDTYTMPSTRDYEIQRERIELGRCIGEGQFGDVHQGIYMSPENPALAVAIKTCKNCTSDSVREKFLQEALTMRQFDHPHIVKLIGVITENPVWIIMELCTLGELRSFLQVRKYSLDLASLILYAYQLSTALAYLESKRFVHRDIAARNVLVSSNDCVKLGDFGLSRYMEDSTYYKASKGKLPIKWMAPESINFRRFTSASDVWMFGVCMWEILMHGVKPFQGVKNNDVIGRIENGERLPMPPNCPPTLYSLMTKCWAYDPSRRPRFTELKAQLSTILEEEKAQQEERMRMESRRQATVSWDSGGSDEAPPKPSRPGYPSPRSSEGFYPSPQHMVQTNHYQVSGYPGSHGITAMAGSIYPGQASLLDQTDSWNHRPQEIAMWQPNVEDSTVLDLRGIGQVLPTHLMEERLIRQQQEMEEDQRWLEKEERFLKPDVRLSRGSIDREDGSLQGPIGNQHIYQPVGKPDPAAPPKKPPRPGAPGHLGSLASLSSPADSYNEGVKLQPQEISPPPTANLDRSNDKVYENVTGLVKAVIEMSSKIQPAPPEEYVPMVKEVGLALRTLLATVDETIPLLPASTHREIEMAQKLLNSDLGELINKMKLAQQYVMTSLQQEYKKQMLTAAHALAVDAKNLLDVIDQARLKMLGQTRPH

COMPOUND_SMILES | TARGET_UNDER_TEST | RESULT_UNITS | residual activity
Oc1ccc(Nc2nc(-c3ccc(Cl)cc3)cs2)cc1 | Focal adhesion kinase 1 (Homo sapiens) (UniProt Q05397) | % | 108
CC(=O)O/N=C1\C(=C2\C(=O)Nc3cc(Br)ccc32)Nc2ccccc21 | Focal adhesion kinase 1 (Homo sapiens) (UniProt Q05397) | % | 95
Cc1ccc(NC2=CC(=O)c3sc(C)nc3C2=O)cc1 | Focal adhesion kinase 1 (Homo sapiens) (UniProt Q05397) | % | 96
Nc1ccc2ncnc(NCCc3ccc(Oc4ccccc4)cc3)c2c1 | Focal adhesion kinase 1 (Homo sapiens) (UniProt Q05397) | % | 106
CCN(CC)C(=O)c1ccc(Nc2nc(OCC3CCCCC3)c3nc[nH]c3n2)cc1 | Focal adhesion kinase 1 (Homo sapiens) (UniProt Q05397) | % | 72
Ic1cccc(CSc2nnc(-c3ccncc3)o2)c1 | Focal adhesion kinase 1 (Homo sapiens) (UniProt Q05397) | % | 96
Nc1cccc(-c2cc3c(Oc4cccc(O)c4)ncnc3[nH]2)c1 | Focal adhesion kinase 1 (Homo sapiens) (UniProt Q05397) | % | 87
Nc1n[nH]c2nnc(-c3c(-c4ccccc4)nn4ccccc34)cc12 | Focal adhesion kinase 1 (Homo sapiens) (UniProt Q05397) | % | 96
COc1cccc(-c2cc(=O)c3ccccc3o2)c1N | Focal adhesion kinase 1 (Homo sapiens) (UniProt Q05397) | % | 115
CNc1cc2c(Nc3cccc(Br)c3)ncnc2cn1 | Focal adhesion kinase 1 (Homo sapiens) (UniProt Q05397) | % | 107
O=[N+]([O-])c1ccc(-c2nc(-c3ccc(F)cc3)c(-c3ccncc3)[nH]2)cc1 | Focal adhesion kinase 1 (Homo sapiens) (UniProt Q05397) | % | 107
